Source of measurements: PubChem BioAssay (NCI)

tested on: LOX IMVI melanoma; assay: NCI tumour cell line growth inhibition, 48 h
Quick list: TGI per entry.
metric: TGI

structure=Cc1ccc2c(-c3ccnc(Nc4ccccc4)n3)c(-c3ccc(F)cc3)nn2n1 result="> 25 µM"
structure=Cc1cc(C)c(S(=O)(=O)N2CCCN(S(=O)(=O)c3c(C)cc(C)cc3C)OCCCO2)c(C)c1 result="> 100 µM"
structure=CCCC[C@H]1[C@@H](OCOc2ccccc2)COC(=O)N1[C@H](C)c1ccccc1 result="70.7 µM"
structure=Cc1cccc2c1C(=O)[C@](C)([C@]1(C)Nc3cccc(C)c3C1=O)N2 result="> 100 µM"
structure=O=c1[nH]/c(=C/c2ccc(OCc3ccccc3)cn2)c(=O)[nH]/c1=C/c1ccc(F)cc1 result="> 100 µM"
